ASSAY NAME: qHTS for differential inhibitors of proliferation of Plasmodium falciparum line 3D7 (AID 1876); further: potency means the concentration at half of the fitted maximal effect
CONDITION DESCRIPTION: P. falciparum 3D7 proliferation inhibition; series mostly up to 28.7 µM
Results filed as inconclusive are left out. Activity calls are given as the source filed them. The call rests on the fitted dose curve; in most records, active means well fitted curve in the direction sought with a large enough effect; inconclusive means small, poorly fitted or top-dose-only effect, or another doubt; inactive means no such curve, though single readings can be large or run the other way.
PROPERTY LABEL: Potency

Recorded Potency, per entry:
CCCN(CCc1ccccc1)C1CCc2c(O)cccc2C1 (centres undefined)    3.16 µM (active)
N=C(N)c1ccc(OCCCCCOc2ccc(C(=N)N)cc2)cc1 (tested in a mixture with another compound)    0.0891 µM (active)
N[C@@H](Cc1ccc(F)cc1)C(=O)O    11.2 µM (active)
O=S(=O)(c1cccc2c(Cl)cccc12)N1CCCNCC1    14.1 µM (active)
CC(N)(C(=O)O)c1ccc(C(=O)O)cc1 (centres undefined)    inactive
Nc1ncnc2c1c(-c1ccc(Oc3ccccc3)cc1)cn2C1CCCC1    10 µM (active)
N#CC(=C(\N)Sc1ccccc1N)/C(C#N)=C(/N)Sc1ccccc1N    3.98 µM (active)
[N-]=[N+]=Nc1ccc(C(=O)CSC[C@H](NC(=O)CC[C@H](N)C(=O)O)C(=O)NCC(=O)O)cc1    inactive

Query string: What value of Potency has been reported for the following molecule? NCCNS(=O)(=O)c1cccc2c(Cl)cccc12
Result string: 12.6 µM (active)

Query string: Here is the next molecule: COc1ccc(NC(=O)c2ccc(-c3ccc(-c4noc(C)n4)cc3C)cc2)cc1N1CCN(C)CC1
Result string: 2.82 µM (active)

Query string: Now consider NC1(C(=O)O)CCCCC1 and answer again.
Result string: inactive

Query string: # iterate: Clc1nccc2c1ccc1ccccc12
Result string: inactive

Query string: Then this molecule: CCCCOC(=O)NS(=O)(=O)c1sc(CC(C)C)cc1-c1ccc(Cn2c(CC)nc3c(C)cc(C)nc32)cc1
Result string: 11.2 µM (active)

Query string: What about O=C(O)c1cc2cc(F)ccc2[nH]1 ?
Result string: inactive

----------
ASSAY NAME: ZIKV-mCherry secondary qHTS for Zika virus inhibitors (AID 1347158)
CONDITION DESCRIPTION: Vero cells, ZIKV-mCherry infection imaging, 48-72 h; series mostly up to 49.2 µM
Results filed as inconclusive are left out. The source made the active and inactive calls. Calls come from the whole dose curve; as a rule, active = well fitted inhibition curve with a large enough effect; inconclusive = small, poorly fitted or top-dose-only effect; inactive = no such curve, though single readings can be large or run the other way.
# valid calls are active, inactive; nothing else

Look over these answered cases.
O=c1[nH]c(=S)[nH]c(-c2ccccc2)c1Cc1c(O)ccc2ccccc12    inactive
O=C1NC(=O)c2cc(Nc3ccccc3)c(Nc3ccccc3)cc21    inactive
C/C(=C\c1ccc(C(=O)O)cc1)c1ccc2c(c1)C(C)(C)CCC2(C)C    active
Cc1nc(N=Nc2cc(S(=O)(=O)O)c3cc([N+](=O)[O-])cc(S(=O)(=O)O)c3c2)c(COP(=O)(O)O)c(C=O)c1O    inactive

Query string: // outcome(item) with item = Cc1nc(N=Nc2ccc(S(=O)(=O)O)cc2S(=O)(=O)O)c(COP(=O)(O)O)c(C=O)c1O
Result string: inactive

----------
Listed molecules paired with reported viability change
ASSAY NAME: Nrf2 qHTS screen for inhibitors: Validation (AID 493153)
CONDITION DESCRIPTION: A549 ARE-Fluc reporter, 18-24 h; measured here: cytotoxicity max response
Procedure: NIH Molecular Libraries Probe Production Network [MLPCN] NIH Chemical Genomics Center [NCGC] […] Assay Protocol Summary: A concentration-response assay was performed with A549 ARE_Fluc cells which are suspended in 5% FBS OPTI-MEM. […] The plate is then incubated at 37deg C at 5% CO2 for 30 minutes before they are read on the ViewLux (Perkin Elmer) for a fluorescent read Ex=405(10)/Em=525(10) for a 3 second exposure, 2x binning, and high gain. […]
Results filed as inconclusive are left out.
Numeric answer only, unit % assumed.

Record excerpt, results attached:
CC(C)Cn1c(=O)n(C)c(=O)c2[nH]cnc21    1.08
NCCS(=O)O    6.69
N=C(N)c1ccc(N)cc1    3.63
NC1CCN(O)C1=O (stereo not drawn)    4.05
NOCC(=O)O    18.2
NC(=O)CC[C@H](N)C(=O)O    2.88
NC1C=CC=C(C(=O)O)C1 (stereo not drawn)    17.7
CCOC(=O)C12CC1/C(=N/O)c1ccccc1O2 (stereo not drawn)    1.91

Query string: Can you look up the measured viability change of CC1CCN=C(N)S1 (stereo not drawn) for me?
Result string: 9.66
